pIC50: −log10 of the molar value.
Here's a batch of compounds along with measured pIC50 for FGFR1 (Homo sapiens, UniProt P11362).

COCCOc1ccc(Nc2ncnc(-n3c(N)nc4ccccc43)n2)cc1OCCOC [Compound 302]; 5.27 to 6.05
COc1ccc(Nc2ncnc(-n3c(N)nc4ccccc43)n2)cc1 [Compound 656]; 5.14 to 5.92
COc1cc(Nc2ncnc(Nc3cccc(O)c3)n2)cc(OC)c1OC [Compound 78]; > 5.97

Problem: System FGFR1 (Homo sapiens, UniProt P11362). Read-out pIC50. Item COc1cc(Nc2ncnc(-n3c(N)nc4cc(Cl)ccc43)n2)cc(OC)c1OC [Compound 296] . Report value.
Result: 5.25 to 6.03

Problem: Tell me its pIC50 on FGFR1 (Homo sapiens, UniProt P11362): COc1cc(Nc2ncnc(-n3c(NCc4ccncc4)nc4ccccc43)n2)cc(OC)c1OC [Compound 413]
Sequence (P11362 22-822, species assumed): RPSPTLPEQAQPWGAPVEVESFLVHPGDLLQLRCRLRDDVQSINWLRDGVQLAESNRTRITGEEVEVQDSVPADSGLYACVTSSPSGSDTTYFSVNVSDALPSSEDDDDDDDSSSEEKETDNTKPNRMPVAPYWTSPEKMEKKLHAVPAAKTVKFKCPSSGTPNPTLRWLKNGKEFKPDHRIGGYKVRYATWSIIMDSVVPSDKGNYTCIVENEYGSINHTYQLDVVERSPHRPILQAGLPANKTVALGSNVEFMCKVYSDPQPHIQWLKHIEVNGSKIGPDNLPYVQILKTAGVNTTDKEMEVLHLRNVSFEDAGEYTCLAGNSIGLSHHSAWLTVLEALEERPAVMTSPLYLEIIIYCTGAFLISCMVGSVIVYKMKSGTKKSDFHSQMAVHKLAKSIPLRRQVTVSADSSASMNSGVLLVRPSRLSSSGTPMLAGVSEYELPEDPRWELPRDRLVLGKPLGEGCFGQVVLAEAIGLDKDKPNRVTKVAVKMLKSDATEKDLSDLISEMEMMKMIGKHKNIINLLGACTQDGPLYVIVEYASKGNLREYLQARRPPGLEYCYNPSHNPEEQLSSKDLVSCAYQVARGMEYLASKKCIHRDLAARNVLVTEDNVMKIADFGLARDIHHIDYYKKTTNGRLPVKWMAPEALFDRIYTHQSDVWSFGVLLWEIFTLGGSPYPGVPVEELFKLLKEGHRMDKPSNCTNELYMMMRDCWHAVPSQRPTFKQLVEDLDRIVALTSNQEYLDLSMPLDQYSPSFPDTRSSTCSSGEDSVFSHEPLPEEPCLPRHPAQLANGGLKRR
Result: > 6.08

Problem: Write down the reported pIC50 (system: FGFR1 (Homo sapiens, UniProt P11362)) of COc1cc(Nc2ncnc(Nc3cccc(C)c3)n2)cc(OC)c1OC [Compound 64]
Result: < 4.91

Problem: Tell me its pIC50 on FGFR1 (Homo sapiens, UniProt P11362): COc1cc(Nc2ncnc(Nc3cccc(Cl)c3)n2)cc(OC)c1OC [Compound 135]
Result: 5.21 to 5.99

Problem: State recorded pIC50 with FGFR1 (Homo sapiens, UniProt P11362), entry COc1cc(Nc2ncnc(Nc3ccccc3)n2)cc(OC)c1OC [Compound 91] , no comment.
Result: 5.00 to 5.17

Problem: Please indicate recorded pIC50 of COc1cc(Nc2ncnc(N(C/C=C/c3ccccc3)c3ccc(Cl)cc3)n2)cc(OC)c1OC [Compound 56] measured with FGFR1 (Homo sapiens, UniProt P11362).
Result: 5.16 to 5.32

* * *

Here, each record is paired with measured pIC50 data.
Target: AKT (Homo sapiens, UniProt Q9Y243)
Construct: Kinases are expressed as either kinase domains or full length constructs; made in house
Sequence (Q9Y243 whole entry, the tested form may be a part): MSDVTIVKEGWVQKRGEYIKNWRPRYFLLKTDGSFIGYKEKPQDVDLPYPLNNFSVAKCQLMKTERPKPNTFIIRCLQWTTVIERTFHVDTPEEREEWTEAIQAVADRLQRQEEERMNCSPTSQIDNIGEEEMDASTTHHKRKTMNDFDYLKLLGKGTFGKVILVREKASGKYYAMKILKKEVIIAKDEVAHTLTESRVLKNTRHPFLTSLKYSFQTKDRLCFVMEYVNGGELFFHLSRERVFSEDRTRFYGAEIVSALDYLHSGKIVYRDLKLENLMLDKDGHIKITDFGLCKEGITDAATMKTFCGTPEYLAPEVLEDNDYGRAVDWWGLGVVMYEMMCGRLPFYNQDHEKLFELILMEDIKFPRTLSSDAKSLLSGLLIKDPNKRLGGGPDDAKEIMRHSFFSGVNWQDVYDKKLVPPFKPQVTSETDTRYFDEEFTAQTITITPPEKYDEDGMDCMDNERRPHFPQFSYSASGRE
Test: Kinase inhibition assay (33P transfer), AKT
Type: biochemical
Details: Table 2, kinase inhibition class; read-out: AKT3-1
Text: The inhibitor compounds described herein are screened in the following manner. […] Kinases are expressed as either kinase domains or full length constructs fused to glutathione S-transferase (GST) or polyHistidine tagged fusion proteins in either E. colior Baculovirus-High Five expression systems. […]
pIC50: −log10 of the molar value.

The following compounds have reported results that may help.
O=c1[nH]c2ccccc2n1-c1ncnc(Nc2cccc(OC(F)(F)F)c2)n1; < 4.94
Clc1ncnc(Nc2cc(-c3ccccc3)n[nH]2)n1; < 4.78
COc1cc(Nc2ncnc(N3CCOCC3)n2)cc(OC)c1OC; 4.89 to 5.00
COC(=O)c1ccc(-c2cc(Nc3ncnc(Nc4ccc(CO)cc4)n3)[nH]n2)cc1; < 4.97

Problem: Specify the recorded pIC50 for COc1cc(Nc2ncnc(Nc3ccc4nn(C)cc4c3)n2)cc(OC)c1OC , system: AKT (Homo sapiens, UniProt Q9Y243).
Result: < 4.96

Problem: Please respond with reported pIC50 (system AKT (Homo sapiens, UniProt Q9Y243)) for COc1cc(Nc2ncnc(Nc3ccc(NCc4ccccc4)cc3)n2)cc(OC)c1OC .
Result: < 5.01

Problem: Fill in: pIC50 on AKT (Homo sapiens, UniProt Q9Y243), entry CC(C)(C)OC(=O)NCc1cccc(Nc2ncnc(Nc3cc(-c4ccccc4)n[nH]3)n2)c1
Result: < 5.01

Problem: Using AKT (Homo sapiens, UniProt Q9Y243) as the test system, report measured pIC50 of CC(=O)NS(=O)(=O)c1ccc(Nc2ncnc(-n3c(=O)[nH]c4ccccc43)n2)cc1 .
Result: < 4.98

Problem: // fetch pIC50 for OCc1cccc(Nc2ncnc(Nc3cc(-c4ccco4)n[nH]3)n2)c1 ; system: AKT (Homo sapiens, UniProt Q9Y243)
Result: 5.16 to 5.94

Problem: Specify pIC50 for O=c1[nH]c2ccccc2n1-c1ncnc(Nc2cccc3ncccc23)n1 , system AKT (Homo sapiens, UniProt Q9Y243).
Result: < 4.90

Problem: Provide measured pIC50 on AKT (Homo sapiens, UniProt Q9Y243) for O=c1[nH]c2ccccc2n1-c1ncnc(Nc2ccc3[nH]ncc3c2)n1 please.
Result: < 4.88

Problem: Report measured pIC50 on AKT (Homo sapiens, UniProt Q9Y243); entry: COc1cc(Nc2ncnc(-n3ccc4cccnc43)n2)cc(OC)c1OC
Result: < 4.92

Problem: Look up and report pIC50, with AKT (Homo sapiens, UniProt Q9Y243) as system, for COc1cc(Nc2ncnc(Nc3ccc4c(cnn4Cc4ccccc4)c3)n2)cc(OC)c1OC
Result: 5.14 to 5.30

Problem: // output pIC50; input COc1cc(Nc2ncnc(Nc3cc(OC)c(OC)c(OC)c3)n2)cc(OC)c1OC ; system AKT (Homo sapiens, UniProt Q9Y243)
Result: < 4.99

Problem: Fill in: pIC50 on AKT (Homo sapiens, UniProt Q9Y243), entry Clc1cccc(Nc2ncnc(-c3cccs3)n2)c1
Result: < 4.81

Problem: Identify measured pIC50 obtained with AKT (Homo sapiens, UniProt Q9Y243) for CCOC(=O)Cc1ccc(Nc2ncnc(Nc3cc(-c4ccco4)n[nH]3)n2)cc1 .
Result: < 4.95

* * *

pIC50: −log10 of the molar value.
Please consider the recorded pIC50 for ErbB2 (Homo sapiens) in what follows.

Known results for compounds:
Fc1ccc(CNc2ncccc2-c2ncnc(Nc3cccc(Cn4ccnc4)c3)n2)cc1; 5.28 to 6.05
c1coc(-c2cc(Nc3ncnc(Nc4nc[nH]n4)n3)n[nH]2)c1; 5.11 to 5.89
COc1cc(Nc2ncnc(-n3c(NCc4ccc(O)cc4)nc4ccccc43)n2)cc(OC)c1OC; < 5.05
COc1cc(Nc2ncnc(-n3c(NCc4nccs4)nc4ccccc43)n2)cc(OC)c1OC; 5.31 to 6.09
Nc1nc2ccccc2n1-c1ncnc(Nc2ccc(N3CCOCC3)cc2)n1; 5.05 to 5.21
COc1ccc(Nc2ncnc(Nc3ccc4c(cnn4Cc4ccccc4)c3)n2)cc1; 5.25 to 6.02
COc1cc(Nc2ncnc(-n3c(NCc4cccc([N+](=O)[O-])c4)nc4ccccc43)n2)cc(OC)c1OC; 5.07 to 5.18

Now for a further compound.
Problem: Determine reported pIC50 for COc1cc(Nc2ncnc(Nc3ccc(C)cc3)n2)cc(OC)c1OC ; test system: ErbB2 (Homo sapiens).
Sequence (P04626 23-1255, species assumed): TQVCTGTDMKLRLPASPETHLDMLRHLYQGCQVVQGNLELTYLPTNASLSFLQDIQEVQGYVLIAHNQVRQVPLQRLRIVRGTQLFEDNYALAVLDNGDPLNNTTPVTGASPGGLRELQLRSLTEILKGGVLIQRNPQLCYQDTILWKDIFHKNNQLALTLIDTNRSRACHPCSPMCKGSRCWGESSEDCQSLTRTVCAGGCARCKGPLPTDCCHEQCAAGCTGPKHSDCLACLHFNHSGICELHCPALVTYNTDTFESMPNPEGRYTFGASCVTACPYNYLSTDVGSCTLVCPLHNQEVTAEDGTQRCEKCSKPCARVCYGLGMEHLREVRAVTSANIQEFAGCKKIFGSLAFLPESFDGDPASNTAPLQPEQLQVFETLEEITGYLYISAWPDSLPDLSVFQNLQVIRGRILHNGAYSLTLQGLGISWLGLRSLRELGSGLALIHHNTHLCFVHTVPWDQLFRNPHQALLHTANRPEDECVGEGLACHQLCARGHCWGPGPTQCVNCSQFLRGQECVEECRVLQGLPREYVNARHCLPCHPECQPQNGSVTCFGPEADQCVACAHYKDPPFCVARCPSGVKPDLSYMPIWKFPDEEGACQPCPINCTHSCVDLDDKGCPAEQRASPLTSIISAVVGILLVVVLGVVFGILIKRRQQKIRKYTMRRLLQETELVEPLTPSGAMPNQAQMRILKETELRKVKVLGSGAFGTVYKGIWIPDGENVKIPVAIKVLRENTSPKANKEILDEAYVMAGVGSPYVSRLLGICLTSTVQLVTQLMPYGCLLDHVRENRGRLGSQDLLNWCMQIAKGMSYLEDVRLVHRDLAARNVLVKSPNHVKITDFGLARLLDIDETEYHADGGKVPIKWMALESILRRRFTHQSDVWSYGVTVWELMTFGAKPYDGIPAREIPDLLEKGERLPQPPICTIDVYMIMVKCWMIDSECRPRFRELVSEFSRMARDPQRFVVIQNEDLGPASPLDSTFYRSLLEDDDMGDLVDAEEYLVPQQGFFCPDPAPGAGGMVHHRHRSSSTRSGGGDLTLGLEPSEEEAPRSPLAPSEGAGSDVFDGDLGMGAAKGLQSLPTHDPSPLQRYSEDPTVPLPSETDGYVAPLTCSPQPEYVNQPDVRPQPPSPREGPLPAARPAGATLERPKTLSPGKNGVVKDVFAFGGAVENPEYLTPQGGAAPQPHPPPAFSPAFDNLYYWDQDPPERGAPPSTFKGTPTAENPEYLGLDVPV
Result: 5.18 to 5.96

* * *

Target: EGFR (Homo sapiens)
Construct: Kinases are expressed as either kinase domains or full length constructs; made in house
Sequence (P00533 25-1210, species assumed): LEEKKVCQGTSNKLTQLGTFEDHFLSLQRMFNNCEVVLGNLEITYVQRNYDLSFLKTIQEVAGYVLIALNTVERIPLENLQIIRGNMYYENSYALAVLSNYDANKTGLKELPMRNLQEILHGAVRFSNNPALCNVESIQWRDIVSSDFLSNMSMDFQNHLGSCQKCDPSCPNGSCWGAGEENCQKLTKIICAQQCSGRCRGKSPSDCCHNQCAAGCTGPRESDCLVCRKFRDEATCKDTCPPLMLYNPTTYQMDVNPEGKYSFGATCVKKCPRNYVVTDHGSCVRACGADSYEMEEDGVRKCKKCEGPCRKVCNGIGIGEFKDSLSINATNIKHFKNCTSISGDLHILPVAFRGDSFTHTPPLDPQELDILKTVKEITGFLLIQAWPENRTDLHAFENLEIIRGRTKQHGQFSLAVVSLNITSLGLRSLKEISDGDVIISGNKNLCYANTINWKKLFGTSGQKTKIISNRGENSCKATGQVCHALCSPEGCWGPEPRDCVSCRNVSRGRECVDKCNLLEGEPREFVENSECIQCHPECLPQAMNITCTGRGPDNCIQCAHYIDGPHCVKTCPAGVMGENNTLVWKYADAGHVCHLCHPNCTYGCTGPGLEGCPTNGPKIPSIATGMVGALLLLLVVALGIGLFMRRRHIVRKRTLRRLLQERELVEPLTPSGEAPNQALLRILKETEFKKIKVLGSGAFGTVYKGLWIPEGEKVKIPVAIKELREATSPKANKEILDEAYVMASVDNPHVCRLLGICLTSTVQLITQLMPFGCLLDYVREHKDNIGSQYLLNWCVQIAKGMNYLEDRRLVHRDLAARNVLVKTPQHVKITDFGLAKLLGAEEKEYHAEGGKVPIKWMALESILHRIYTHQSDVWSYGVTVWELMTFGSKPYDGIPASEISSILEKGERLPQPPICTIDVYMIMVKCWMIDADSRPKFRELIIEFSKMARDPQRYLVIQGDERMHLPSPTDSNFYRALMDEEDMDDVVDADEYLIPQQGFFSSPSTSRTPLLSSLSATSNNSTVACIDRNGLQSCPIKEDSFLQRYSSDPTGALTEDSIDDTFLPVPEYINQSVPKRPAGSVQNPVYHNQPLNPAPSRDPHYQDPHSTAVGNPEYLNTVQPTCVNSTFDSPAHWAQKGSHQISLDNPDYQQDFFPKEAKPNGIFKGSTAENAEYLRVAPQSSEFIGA
Assay: Kinase inhibition assay (33P transfer), EGFR
Format: biochemical
Conditions: Table 2, kinase inhibition class; read-out: EGFR-1
measured_parameter: IC50

Answered examples (3):
O=c1[nH]c2ccccc2n1-c1ncnc(Nc2cccc3ccccc23)n1; > 12.7 µM
COc1cc(CNc2ncnc(N(C)c3cccc(Cl)c3)n2)cc(OC)c1OC; 5.77 to 8.42 µM
CN(c1ccccc1)c1ncnc(-n2c(N)nc3ccccc32)n1; 7.56 to 11 µM

Problem: Identify IC50 associated with the compound COc1cc(Nc2ncnc(-n3c(NCc4ccc([N+](=O)[O-])cc4)nc4ccccc43)n2)cc(OC)c1OC
Result: > 8.51 µM

Problem: Specify reported IC50 for the compound shown: COc1cc(Nc2ncnc(-n3c(OCc4ccccn4)nc4ccccc43)n2)cc(OC)c1OC
Result: > 9.27 µM

Problem: State its IC50: COc1cc(Nc2ncnc(-n3c(NC(CCO)c4ccccc4)nc4ccccc43)n2)cc(OC)c1OC (centres unmarked)
Result: > 8.53 µM

Problem: Return IC50 (reported value) for this compound: Nc1ncnc(Nc2cccc(Cl)c2)n1
Result: > 20.3 µM

Problem: Look up and report measured IC50 for this entry: COc1cc(Nc2ncnc(Nc3ccc4c(c3)Cc3ccccc3-4)n2)cc(OC)c1OC
Result: > 10.2 µM

Problem: Indicate the recorded IC50 value for this compound: COc1cc(Nc2ncnc(-n3c(NC4CCc5ccccc54)nc4ccccc43)n2)cc(OC)c1OC (centres unmarked)
Result: 4.71 to 6.87 µM

* * *

Target: Itk (Homo sapiens)
Construct: Kinases are expressed as either kinase domains or full length constructs; made in house
Sequence (Q08881 1-620): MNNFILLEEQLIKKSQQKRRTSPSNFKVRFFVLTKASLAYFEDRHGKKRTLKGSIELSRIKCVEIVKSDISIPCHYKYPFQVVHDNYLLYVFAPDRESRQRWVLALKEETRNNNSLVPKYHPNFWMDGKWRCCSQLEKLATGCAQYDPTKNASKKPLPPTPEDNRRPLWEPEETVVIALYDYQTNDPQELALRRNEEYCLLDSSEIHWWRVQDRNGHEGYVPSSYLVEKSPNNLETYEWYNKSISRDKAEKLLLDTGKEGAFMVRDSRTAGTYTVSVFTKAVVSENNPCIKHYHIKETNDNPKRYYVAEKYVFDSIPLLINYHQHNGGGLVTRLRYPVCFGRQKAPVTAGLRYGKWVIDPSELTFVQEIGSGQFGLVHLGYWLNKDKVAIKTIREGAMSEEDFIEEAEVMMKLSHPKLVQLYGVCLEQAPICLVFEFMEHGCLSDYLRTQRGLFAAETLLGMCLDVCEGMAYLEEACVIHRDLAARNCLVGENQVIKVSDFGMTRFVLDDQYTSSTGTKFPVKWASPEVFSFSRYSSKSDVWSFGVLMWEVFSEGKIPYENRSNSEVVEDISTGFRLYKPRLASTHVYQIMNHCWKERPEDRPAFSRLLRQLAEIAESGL
Test: Kinase inhibition assay (33P transfer), Itk
Format: biochemical
Conditions: Table 3, class symbols; read-out: Itk-1
Readings of IC50 for the listed compounds

Reference set, count: 10
COc1ccc(Nc2ncnc(N(C)c3ccc4c(cnn4Cc4ccccc4)c3)n2)cc1OC [Compound 669]; > 9.62 µM
Brc1cccc(Nc2ncnc(Nc3cccc(Cn4ccnn4)c3)n2)c1 [Compound 961]; 5.67 to 8.27 µM
COc1ccc(Nc2ncnc(N(C)[C@H](C)c3ccccc3)n2)cc1OC [Compound 803]; > 12.3 µM
COc1cc(Nc2ncnc(Nc3cc(-c4ccc(C(N)=O)cc4)n[nH]3)n2)cc(OC)c1OC [Compound 642]; 0.865 to 5.19 µM
COc1cc(Nc2ncnc(Nc3cc(-c4ccco4)[nH]n3)n2)cc(C(F)(F)F)c1 [Compound 821]; 0.958 to 5.75 µM
COc1ccc(Nc2ncnc(Nc3cc(Cl)cc(Cl)c3)n2)cc1OC [Compound 898]; > 11.5 µM
COc1cc(Nc2ncnc(-c3cccnc3Nc3ccccc3C)n2)cc(OC)c1OC [Compound 833]; > 10.1 µM
O=C(O)Cc1cccc(Nc2ncnc(-c3cccnc3NCc3ccccc3)n2)c1 [Compound 1099]; > 10.9 µM
CN(c1ccc(Cl)c(Cl)c1)c1ncnc(Nc2ccc3c(cnn3Cc3ccccc3)c2)n1 [Compound 903]; > 9.45 µM
COCCNc1ncnc(Nc2cc(-c3ccc(C(=O)OC)cc3)n[nH]2)n1 [Compound 816]; 6.5 to 9.48 µM

Problem: Specify the recorded IC50 for COc1ccc(Nc2ncnc(Nc3ccc(N4CCCCC4)cc3)n2)cc1OC [Compound 899] , system: Itk (Homo sapiens).
Result: 0.984 to 5.9 µM

Problem: Enter measured IC50, system Itk (Homo sapiens), for the compound shown: COc1ccc(Nc2ncnc(N(C)CCc3ccccn3)n2)cc1OC [Compound 869]
Result: 6.55 to 9.55 µM

Problem: Please report the measured IC50 for c1coc(-c2cc(Nc3ncnc(Nc4nc[nH]n4)n3)n[nH]2)c1 [Compound 889] tested on Itk (Homo sapiens).
Result: 1.29 to 7.73 µM

Problem: State IC50 (Itk (Homo sapiens)) of CN(c1cccc(Cl)c1)c1ncnc(Nc2cc(Cl)c(Cl)c(Cl)c2)n1 [Compound 804] .
Result: > 10.8 µM

Problem: Report value only: IC50, Itk (Homo sapiens), COc1cc(Nc2ncnc(-c3cccnc3Nc3cccc(C#N)c3)n2)cc(OC)c1OC [Compound 828]
Result: > 9.88 µM

Problem: Fill in IC50 for Cc1cccc(Nc2ncnc(N(C)c3ccc4c(cnn4Cc4ccccc4)c3)n2)c1 [Compound 668] tested with Itk (Homo sapiens).
Result: > 10.7 µM

Problem: # assay system Itk (Homo sapiens): give IC50 of COC(=O)c1cccc(Nc2ncnc(-n3c(NCc4ccccc4)nc4ccccc43)n2)c1 [Compound 1067]
Result: > 9.97 µM

Problem: Report its IC50 with Itk (Homo sapiens) as the test system: c1ccc(Nc2ncccc2-c2ncnc(Nc3ccc(N4CCOCC4)cc3)n2)cc1 [Compound 1113]
Result: > 10.6 µM
